These entries and their values trace back to patent US20220267379A1.

Item-by-item account of pKi
# Target entity: human Kallikrein-related peptidase 7 (hKLK7) (human), P49862
# Sequence (P49862 30-253): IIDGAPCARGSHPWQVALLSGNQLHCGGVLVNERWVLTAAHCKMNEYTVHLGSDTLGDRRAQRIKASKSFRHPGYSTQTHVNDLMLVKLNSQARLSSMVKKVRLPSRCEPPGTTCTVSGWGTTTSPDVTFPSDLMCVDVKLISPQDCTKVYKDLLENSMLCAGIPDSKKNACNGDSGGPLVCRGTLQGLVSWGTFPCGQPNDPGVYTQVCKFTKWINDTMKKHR
# Experiment: enzyme inhibition; ketone linker
# Stated conditions: modification not given
Lab note: report pKi as minus log10 of the concentration in molar units, number only.

[[record]]
binder = "PCLYLAQCS [112]"
value_measured = 7.44


Query: Endpoint output: pKi of PCLYMARCS [111] . Value?
Reply: 8.00

Query: // lookup pKi for PCLYLSRCS [095]
Reply: 7.05
